Property: viability at 10 µM; scope: individual compounds
Tested on: HUVECs
Test: High-content imaging cytotoxicity in HUVECs, 24 h
Type: cell-based, human
Conditions: Homo sapiens, HUVEC, 24 h, HUVECs, 24 hr, 10.00 µM; 0.00 µM = 100.00; read-out: huvec.cyto.24hr
Method: Similar to the cultivation of iCell®-endothelial cells, HUVEC maintenance and experimentation are detailed elsewhere ([Iwata et al. 2017]). […] Cytotoxicity was assessed in parallel experiments. […] Phenotypic responses were quantitatively assessed using concentration–response modeling as detailed elsewhere ([Sirenko et al. 2017]). Briefly, phenotypic readouts were normalized to vehicle controls and fit to a four-parameter logistic model in R studio software (version 3.1.1; R Development Core Team). […]
Counter-ions that a name gives are not always drawn.
parameter: viability at 10 µM (%)

compound=COc1ccc(-c2ccc(Cl)cc2)cc1 target_or_system=HUVECs observed_value=94.1
compound=Oc1ccccc1-c1ccc(Cl)cc1 target_or_system=HUVECs observed_value=90.2
compound=Oc1cccc(-c2ccc(Cl)cc2)c1 target_or_system=HUVECs observed_value=70.9
compound="O=S(=O)(O)Oc1ccc(-c2cccc(Cl)c2)cc1Cl [4-yl PCB 11 sulfate]" target_or_system=HUVECs observed_value=108
compound="O=S(=O)(O)Oc1cc(Cl)c(-c2cc(Cl)ccc2Cl)cc1Cl [4-yl PCB 52 sulfate]" target_or_system=HUVECs observed_value=91.2
compound=Oc1ccc(O)c(-c2ccc(Cl)cc2)c1 target_or_system=HUVECs observed_value=57.5
